experiment: soluble on expression in E. coli; label from the status in PepcDB or PDB records
metric: soluble on expression in E. coli

MITSDSHMHTRFSTDSDADIRDMIESALKKGLQSICITDHIDKDYPFHEDTGAEAFLVDLDEYFPKLAEWKEAYAEKIQIRRGIELGLQPHLAGFYEELTNQYPFDFVIGSVHVVHGMDPYYGEIFEGRSDEEVYKETFLATLENLDAVSSFDVLGHLDYVVRYGKCQARQYSYKKYAQEIDEILKKVIAMGKGIELNTAGWKYGLAFCHPHPEILCRYKELGGEIITVGSDAHKPEHVAYDFQKAADVLKACGFKYYTEFQDRKPIFKQLL ... soluble
MKVNPDFFPLTQMAQRFVDQLAQCRRLGLTVLEASEHHVLIELPYSTELIGYPDTGVIHGGVITTLMDTACGSAVVSAIFQKYQSLEISPTLDLRVDYMKPAQPHKSVYGFAECYKLSSNIAFTRAIAYQDSIDDPIAHAVGSFMRISPEMVGDAFRQALIGLEHHHHHH ... soluble
SSTWLSEAEMIALAGLLQMSQGEQTPNCVASSLPSTSCPDPVSVSEDPGPSGDQSCSGTDT ... soluble

* * *

test: soluble on expression in E. coli; label from the status in PepcDB or PDB records
metric: soluble on expression in E. coli

MGSDKIHHHHHHMTKHQNFIETKEYKRFAEFCDACIKYQYIGICYGQPGVGKTLSSRYYTNWNTIEKQVNHRGWEDLASKTTDDILSVNKIFYTAPAEKQTRLSNDLYSISASIDLGQKLHIVNKYGHDHSKHYSDMFKYIDLIIVDEIDRLKVQHLEQLRAIYDEHNLAMIFIGMPGIEKKLSRYPQLYSRIGFAHEFDNLSKDETHHILEYKWQDLGFDLKLEDFTDYEAITTIIKITKGNFRLIHRLFAQIDRIMDINGLDKISTEVVETARDSLVIGIR ... not soluble
MKRLIVGISGASGAIYGVRLLQVLRDVTDIETHLVMSQAARQTLSLETDFSLREVQALADVTHDARDIAASISSGSFQTLGMVILPCSIKTLSGIVHSYTDGLLTRAADVVLKERRPLVLCVRETPLHLGHLRLMTQAAEIGAVIMPPVPAFYHRPQSLDDVINQTVNRVLDQFAITLPEDLFARWQGA ... not soluble
LKQRRKIANEVKIKNTLLEYAQQITQMGTFEYNVFTNTLFWSNEMYNIFELDRSVIPEINFIDSLIKEESEITHNRRKKNFQPGASYSDELKIRTVNGNEKVLISNGYVVNEENGLVVHGAIIDIT ... not soluble

* * *

assay: soluble on expression in E. coli; label from the status in PepcDB or PDB records
metric: soluble on expression in E. coli

MRGKRVVLPDKDHQACGLFGVIDRSGRRFSGEMAINAMINMKVRGNGLGGGFAAYGIYPEYKDYYALHVMFQDWDMEAKHRVDEFLDANFDVVYAEEIPVNPEANVASPPLFWRYFVSPNKKGDEKKLSDDDYVVKKVMEINTKINNAYVVSSGKDMGVFKGVGFPEDIAEYFMLAEEYKGYMWTAHSRFPTNTPGWWGGAHPFCILDWTVVHNGEISSYGTNKRYLEMFGYYCTLLTDTEVMAYAVDLLMRKQGLPIEIVSKIFAPPMWDHIDIMDEKKKKFYTALRMNYGPLLINGPWTIVVARHGEMFGITDRIRLRPITSGEKGDLLFVSSEESAIRAVCPDLDRVYTPMGGEPVIGRLKSREKELAKQLSEVE ... not soluble
MGSDKIHHHHHHMALEDLVILLVEDDPVFRSIVAAFLTNRGATVIEADDGQQGLERFSQHDFDIVLADLSMPILGGLDMLKQMIKRKPDTLSIVISGNQVMADVVEALRVGASDYLVKPVNDLCLIENAIRQCVGGSSQQDVQLEDLDELSYQELEEHLNLLEQNAEAAKSVQQQLFPPSVIDYPKAKIDYSLFKHDEVSAYFIDSVNVGERYLIMYMAHFHPQDNRCAFASVLLKSFVNQKLKQFRNDNTETVIEPFNMLSYLNERMSKSGLDIYVDIVYAVVELTHYRASIAQAGKGLRCYIRNEEGLMPLAMPDALQLGILEWGQPSTQFRNLMPGESLCVASSNIEHRDMLLNDEFVGLSYSPEVAPGGYVQMSF ... not soluble
